Where do the numbers come from? From BigSolDB 2.1.

EXPERIMENTAL CONDITIONS: in acetonitrile, 283.15 K
MEASURED QUANTITY: solubility (mole fraction)
# answer = number (no unit)

I am curious: what solubility (mole fraction) value has been reported for Nc1cccc2ccncc12 ?
0.00539

###

EXPERIMENTAL CONDITIONS: in water, 313.15 K
MEASURED QUANTITY: solubility (mole fraction)
Respond using a number only.

# input compound: Nc1cccc2ccncc12 ; wanted: its solubility (mole fraction)
9.8e-05

###

EXPERIMENTAL CONDITIONS: in water, 288.15 K
MEASURED QUANTITY: solubility (mole fraction)
Enter the number alone.

// solubility (mole fraction) lookup, key: Nc1cccc2ccncc12
4.6e-05

###

EXPERIMENTAL CONDITIONS: in isopropanol, 303.15 K
MEASURED QUANTITY: solubility (mole fraction)
Lab note: record the figure alone, no unit after it.

Fill in: solubility (mole fraction) of Nc1cccc2ccncc12 is ___
0.00664

###

EXPERIMENTAL CONDITIONS: in water, 303.15 K
MEASURED QUANTITY: solubility (mole fraction)
Answer as a number with no unit attached.

Consider the compound Nc1cccc2ccncc12 and give its measured solubility (mole fraction).
7.2e-05

###

EXPERIMENTAL CONDITIONS: in acetonitrile, 288.15 K
MEASURED QUANTITY: solubility (mole fraction)
Provide a numeric answer; units are not to be included.

Please report the recorded solubility (mole fraction) for Nc1cccc2ccncc12 .
0.00651

###

EXPERIMENTAL CONDITIONS: in DMF, 303.15 K
MEASURED QUANTITY: solubility (mole fraction)
No unit in the answer, please; the number alone is enough.

Please look up its solubility (mole fraction): Nc1cccc2ccncc12
0.0141

###

EXPERIMENTAL CONDITIONS: in methanol, 308.15 K
MEASURED QUANTITY: solubility (mole fraction)
Give the figure by itself; no unit, no explanation.

I'd like to know its solubility (mole fraction). The compound in question is Nc1cccc2ccncc12
0.000919

###

EXPERIMENTAL CONDITIONS: in propylene glycol, 303.15 K
MEASURED QUANTITY: solubility (mole fraction)
Respond with the number and no other words.

Find the recorded solubility (mole fraction) belonging to Nc1cccc2ccncc12 and report it.
0.000433

###

EXPERIMENTAL CONDITIONS: in propylene glycol, 278.15 K
MEASURED QUANTITY: solubility (mole fraction)
Give a plain numeric answer without units written out.

Requested read-out: solubility (mole fraction). Entry: Nc1cccc2ccncc12
0.000176

###

EXPERIMENTAL CONDITIONS: in ethylene glycol, 278.15 K
MEASURED QUANTITY: solubility (mole fraction)
// no unit, no text: just the number

// solubility (mole fraction) lookup, key: Nc1cccc2ccncc12
0.000113

###

EXPERIMENTAL CONDITIONS: in acetone, 323.15 K
MEASURED QUANTITY: solubility (mole fraction)
API doc: respond with a numeric literal and nothing else, no unit.

GET /values?readout=solubility (mole fraction)&item= Nc1cccc2ccncc12
0.0143

###

EXPERIMENTAL CONDITIONS: in acetonitrile, 303.15 K
MEASURED QUANTITY: solubility (mole fraction)
// return just the number, without any unit appended

Form field: reported solubility (mole fraction) of Nc1cccc2ccncc12
0.0111
